molecular target: pooled human IgG
Readings of Enzyme Activity Endpoint Assay: scIgG for the listed proteins
# output: bare number, implied unit ng/µL

1. PRT-26 (protein) MANQEIRYSEVTPYHVTSVWTKGVTPPANFTQGEDVFHAPYVANQGWYDITKTFNGKDDLLCGAATAGNMLHWWFDQNKDQIERYLKEHPEKQKINFNGEQMFDVKEAIDTKDSQTDSKLFEYFKEKAFPYLSTKHLGVFPDHVLDMFINGYRLSLTNHGPTPVKEGSKDPRGGIFDAVFTRGDQSKLLTSRHDFKEKTLKEISDLIKQELTEGKALGLSHTYANVRINHVINLWGADFDSEGNLKAIYVTDSDSNASIGMKKYFVGVNSAGKVAISAKEIKEDNIGAQVLGLFTLSTGQDIWNQTN | 14

Kindly consider the entry below.
Enzyme Activity Endpoint Assay: scIgG measured on PRT-46 (protein) MANQEIRYSEVTPYHVTSVWTKGVTPPANFTQGEDVFHAPYVANQGWYDITKTFNGKDDLLCGAATAGNMLHWWFDQNKDQIDRYLEEHPEKAKINFNGEQMFDVKEAIDTKNDQLDSKLFEYFKEKAFPYLSTKHLGVFPDLVLDMFINGYRLSLTNHGPTPVKEGSKDPRGGFFDAVFTRGDQSKLLTSRHDFKEKNLKEISDLIKKELTEGKALGLSHTYANVRINHVINLWGADFDSNGNLKAIYVTDSDSNASIGMKRYFVGVNSAGKVAISAKEIKEDNIGAQVLGLFTLSTGQDSWNQTN = 39
